- target.entity: Stimulator of interferon genes protein (Homo sapiens)
- Sequence (Q86WV6 whole entry): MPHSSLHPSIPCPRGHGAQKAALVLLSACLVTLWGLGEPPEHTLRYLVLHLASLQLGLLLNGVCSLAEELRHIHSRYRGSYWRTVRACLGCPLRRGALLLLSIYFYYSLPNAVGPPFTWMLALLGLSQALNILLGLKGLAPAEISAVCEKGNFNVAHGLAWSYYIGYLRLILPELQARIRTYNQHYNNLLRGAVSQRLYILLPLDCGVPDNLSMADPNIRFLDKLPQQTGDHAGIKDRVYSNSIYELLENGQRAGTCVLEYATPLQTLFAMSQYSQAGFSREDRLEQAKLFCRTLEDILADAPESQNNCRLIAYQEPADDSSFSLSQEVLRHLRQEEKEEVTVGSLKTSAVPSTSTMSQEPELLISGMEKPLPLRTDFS
- measurement.notes: Potency index, ratio of test compound EC50 to prodrug EC50 for activation of wild-type human STING expressed in HEK293T cells co-expressing IRF3-activated ISRE assessed as IRF3 reporter activation measured after 7 hrs by luciferase reporter gene assay
- Assay type: cell-based
Please provide measured Ratio EC50 for the entries that follow.

Specify Ratio EC50 for Nc1ncnc2c1ncn2[C@@H]1O[C@@H]2CO[P@@](=O)(OCOC(=O)c3ccccc3)O[C@H]3[C@@H](F)[C@H](n4cnc5c(N)ncnc54)O[C@@H]3COP(=O)(O)O[C@H]2[C@H]1F and stop.
20

Specify Ratio EC50 for CC(C)(C)C(=O)OCO[P@]1(=O)OC[C@H]2O[C@@H](n3cnc4c(N)ncnc43)[C@H](F)[C@@H]2OP(=O)(O)OC[C@H]2O[C@@H](n3cnc4c(N)ncnc43)[C@H](F)[C@@H]2O1 and stop.
61

Specify Ratio EC50 for CC(C)OC(=O)OCO[P@]1(=O)OC[C@H]2O[C@@H](n3cnc4c(N)ncnc43)[C@H](F)[C@@H]2OP(=O)(O)OC[C@H]2O[C@@H](n3cnc4c(N)ncnc43)[C@H](F)[C@@H]2O1 and stop.
25

Specify Ratio EC50 for CCC(CC)C(=O)OCO[P@]1(=O)OC[C@H]2O[C@@H](n3cnc4c(N)ncnc43)[C@H](F)[C@@H]2OP(=O)(O)OC[C@H]2O[C@@H](n3cnc4c(N)ncnc43)[C@H](F)[C@@H]2O1 and stop.
18

Specify Ratio EC50 for CC(C)(C)C(=O)OCS[P@@]1(=O)OC[C@H]2O[C@@H](n3cnc4c(N)ncnc43)[C@H](F)[C@@H]2O[P@@](=O)(SCOC(=O)C(C)(C)C)OC[C@H]2O[C@@H](n3cnc4c(N)ncnc43)[C@H](F)[C@@H]2O1 and stop.
23

Specify Ratio EC50 for CC(C)(C)C(=O)OCS[P@]1(=O)OC[C@H]2O[C@@H](n3cnc4c(N)ncnc43)[C@H](F)[C@@H]2O[P@](=O)(SCOC(=O)C(C)(C)C)OC[C@H]2O[C@@H](n3cnc4c(N)ncnc43)[C@H](F)[C@@H]2O1 and stop.
10

Specify Ratio EC50 for CC(C)(C)C(=O)OCS[P@@]1(=O)OC[C@H]2O[C@@H](n3cnc4c(N)ncnc43)[C@H](F)[C@@H]2O[P@](=O)(SCOC(=O)C(C)(C)C)OC[C@H]2O[C@@H](n3cnc4c(N)ncnc43)[C@H](F)[C@@H]2O1 and stop.
3

Just for reference, ChEMBL document CHEMBL5036318 is where these values come from.
